Provide the recorded TGI for the entries that follow.
# Test system: RXF 393 renal
# assay text: NCI tumour cell line growth inhibition, 48 h

Query :: # return recorded TGI for input `O=S(=O)(O)c1ccc2c(N=Nc3ccc(Cl)cc3)c(O)ccc2c1`
Result :: > 100 µM

Query :: # return recorded TGI for input O=C1C2C3C=C4c5ccccc5N(c5ccccc5)C4(C2C(=O)N1c1ccc(Br)cc1)[C@H]1C(=O)N(c2ccc(Br)cc2)C(=O)[C@@H]31 (stereo partly drawn)
Result :: > 100 µM

Query :: # return recorded TGI for input C=CCCCCOC1C=CC(O)C(CO)O1 (stereo not drawn)
Result :: > 100 µM

Query :: # return recorded TGI for input `Clc1ccccc1C(Nc1ncccn1)Nc1ncccn1`
Result :: > 100 µM

Query :: # return recorded TGI for input `O=C(CC(=O)c1cccc(Cl)c1)c1cccc(Cl)c1`
Result :: > 100 µM

Query :: # return recorded TGI for input O=C(c1ccccc1)n1c(-c2ccccc2)cs/c1=N\S(=O)(=O)c1ccc(N2N=C3c4ccccc4CC3C2c2cccs2)cc1 (stereo not drawn)
Result :: > 100 µM

Query :: # return recorded TGI for input `NNC(=O)c1ccc(OCc2nc3ccccc3[nH]2)cc1`
Result :: > 100 µM

Query :: # return recorded TGI for input `O=C(Nc1nnc(-c2c(Cl)c(Cl)c(Cl)c(Cl)c2-c2nc3cc(C(=O)c4ccccc4)ccc3[nH]2)o1)c1ccc(Cl)cc1`
Result :: > 100 µM

----------
Provide the recorded TGI for the entries that follow.
# Tested on: OVCAR-8 ovarian
# assay text: NCI tumour cell line growth inhibition, 48 h

Query :: # return recorded TGI for input CC(CN(C)C)C(=O)c1ccccc1 (centres undefined)
Result :: > 91.2 µM

Query :: # return recorded TGI for input `CCN(CC)c1ccc2cc(C(=O)Nc3ccc(C)cc3)c(=N)oc2c1`
Result :: > 100 µM

Query :: # return recorded TGI for input `N#CN1CC[C@H](C(=O)Nc2cc3cc(C(N)=O)ccc3cn2)C1`
Result :: > 46.3 µM

Query :: # return recorded TGI for input `Cc1nc2[nH]ncn2c(=O)c1CCO`
Result :: > 10 µM

Query :: # return recorded TGI for input `CCOC(=O)c1c(N2CCCC2)ncn(C)c1=S`
Result :: > 100 µM

Query :: # return recorded TGI for input `CCCN1C(=O)/C(=C\c2ccc(OC)c(OC)c2)SC1=Nc1ccccc1`
Result :: > 100 µM

Query :: # return recorded TGI for input `O=C(NNS(=O)(=O)c1ccccc1)c1cccnc1`
Result :: > 100 µM

Query :: # return recorded TGI for input `CC[N+](C)(CC)CC(C)(C)C(=O)/C=C/c1ccc(/C=C/C(=O)C(C)(C)C[N+](C)(CC)CC)cc1`
Result :: > 100 µM

Query :: # return recorded TGI for input `COc1ccc2nc3n(c2c1)C(=O)c1ccccc1-3`
Result :: > 100 µM

----------
Provide the recorded TGI for the entries that follow.
# Tested on: SF-295 CNS
# assay text: NCI tumour cell line growth inhibition, 48 h

Query :: # return recorded TGI for input COc1c2c(cc3c1C1(O)Cc4ccc5c(c4C[N+]1(C)CC3)OCO5)OCO2 (stereo not drawn)
Result :: > 100 µM

Query :: # return recorded TGI for input CCOC(=O)C(CNc1ccc(O)cc1)NC(=O)c1ccccc1 (stereo not drawn)
Result :: > 100 µM

Query :: # return recorded TGI for input Cc1ccc(NC(=O)/C(=N/N(C)C)C(C2OC(=O)c3ccccc32)[N+](=O)[O-])cc1 (stereo not drawn)
Result :: > 100 µM

----------
# Tested on: RXF 393 renal
# assay text: NCI tumour cell line growth inhibition, 48 h
Provide the recorded TGI for the entries that follow.

Query :: # return recorded TGI for input `CC1(C)CC(=O)c2c(nc3c(ccc4ccccc43)c2-c2ccc(NC(=O)CCCCC(=O)Nc3ccc(-c4c5c(nc6c4ccc4ccccc46)CC(C)(C)CC5=O)cc3)cc2)C1`
Result :: > 100 µM

Query :: # return recorded TGI for input COc1c2c(cc3c1C1(O)Cc4ccc5c(c4C[N+]1(C)CC3)OCO5)OCO2 (stereo not drawn)
Result :: > 100 µM

Query :: # return recorded TGI for input `CC/C=C/C[C@H](O)[C@H]1C[C@H]2O[C@H](CC(=O)OC)C[C@H]2O1`
Result :: > 100 µM

Query :: # return recorded TGI for input CCC(O)c1ccc(N=Cc2ccccc2O)cc1 (stereo not drawn)
Result :: > 100 µM

Query :: # return recorded TGI for input C#CC1(O)CCC2[C@@H]3CCc4cc(Oc5nc(F)nc(-c6c7ccccc7cn6C)n5)ccc4C3CC[C@@]21C (stereo partly drawn)
Result :: > 100 µM

Query :: # return recorded TGI for input CC1(C)CCCCCC(C)(CCCO)C1=O (stereo not drawn)
Result :: > 100 µM

Query :: # return recorded TGI for input `CCn1c(=O)c2nc(SC)sc2n(-c2ccccc2)c1=O`
Result :: > 100 µM

Query :: # return recorded TGI for input NC(=O)c1c(NC=O)ncn1C1OCC(O)C(O)C1O (stereo not drawn)
Result :: > 100 µM

Query :: # return recorded TGI for input CC(CN(C)C)C(=O)c1ccccc1 (stereo not drawn)
Result :: > 54.2 µM

Query :: # return recorded TGI for input O=c1[nH]c(=O)n(C2OC(CO)C(O)C2O)cc1OCC(F)(F)F (stereo not drawn)
Result :: > 100 µM

Query :: # return recorded TGI for input CNS(=O)(=O)OCC1OC(n2cnc3c(N)ncnc32)C(O)C1O (stereo not drawn)
Result :: > 100 µM

Query :: # return recorded TGI for input `CC[P+]1(c2ccccc2)[C@@H](C)CC[C@@H]1C`
Result :: > 100 µM

Query :: # return recorded TGI for input `CN(C(=O)Cc1cc(Cl)c(Cl)cc1NC(=O)CN)[C@H]1CCCC[C@@H]1N1CCCC1`
Result :: > 100 µM

Query :: # return recorded TGI for input `Oc1[nH]c2ccccc2c1N=Nc1c(F)c(F)c(F)c(F)c1F`
Result :: > 100 µM

Query :: # return recorded TGI for input `Cc1cccc(NC(=O)/C=C/c2ccc([N+](=O)[O-])cc2)c1`
Result :: > 52.7 µM

Query :: # return recorded TGI for input `Cc1cccc2c(N)c3cccc(C(=O)NCC[N+]4(Cc5ccc([N+](=O)[O-])cc5)CCOCC4)c3nc12`
Result :: > 100 µM

Query :: # return recorded TGI for input NC(Cc1ncccn1)C(=O)O (stereo not drawn)
Result :: > 100 µM

Query :: # return recorded TGI for input `CN(/N=C/c1cccc2cccnc12)c1c([N+](=O)[O-])cc([N+](=O)[O-])cc1[N+](=O)[O-]`
Result :: > 100 µM

Query :: # return recorded TGI for input `CC[C@H](C)C1=C(O)[N@+]2([O-])Oc3ccc(-c4c(O)c(O)c(-c5ccc(O)cc5)c(OC(C)=O)c4OC(C)=O)cc3O[C@]2([C@@H](C)CC)C(=O)N1O`
Result :: > 50 µM

Query :: # return recorded TGI for input CCOC(=O)C(CNc1ccc(O)cc1)NC(=O)c1ccccc1 (stereo not drawn)
Result :: > 100 µM

Query :: # return recorded TGI for input `C/C=C/COC(=O)CO[N+](=O)[O-]`
Result :: > 100 µM

Query :: # return recorded TGI for input CCOC(=O)C(C)c1nc2ccc(C(F)(F)F)cc2[nH]c1=O (stereo not drawn)
Result :: > 100 µM

Query :: # return recorded TGI for input Cc1ccc(NC(=O)/C(=N/N(C)C)C(C2OC(=O)c3ccccc32)[N+](=O)[O-])cc1 (stereo not drawn)
Result :: > 100 µM

----------
Provide the recorded GI50 for the entries that follow.
# Test system: HCC-2998 colon
# assay text: NCI tumour cell line growth inhibition, 48 h

Query :: # return recorded GI50 for input `Nc1ccccc1C#C/C=C\C#Cc1c(F)c(F)c(F)c(F)c1F`
Result :: 19.4 µM

Query :: # return recorded GI50 for input `C=C1C(=O)O[C@H]2[C@H]1CC/C(COC(=O)NCCc1c[nH]c3ccc(Cl)cc13)=C\CC[C@@]1(C)O[C@@H]21`
Result :: 1.96 µM

Query :: # return recorded GI50 for input `COc1ccc(/C=C\c2cc(OC)c(OC)c(OC)c2)cc1OCC(=O)Nc1ccc2nc(C)sc2c1`
Result :: 6.9 µM

Query :: # return recorded GI50 for input `CCOC(=O)/C=C/C(=O)[C@H](CC(C)C)NC(=O)[C@H](Cc1ccccc1)NC(=O)OCc1ccccc1`
Result :: 15.6 µM

Query :: # return recorded GI50 for input `Cc1cc(Nc2cc(N3CCN(C)CC3)nc(Sc3ccc(NC(=O)C4CC4)cc3)n2)n[nH]1`
Result :: 5.66 µM

----------
# Tested on: KM12 colon
# assay text: NCI tumour cell line growth inhibition, 48 h; in the data active = GI50 below about 0.43 µM; inactive = the rest
Please reply with one of these outcomes: class 1 for active, class 0 for inactive

Query :: Check the results log: what was the call for `ClCc1cccc(CSc2ncnc3c2ncn3Cc2cccc(CCl)c2)c1` ?
Result :: class 0

Query :: Check the results log: what was the call for `CN1CCN(Cc2ccc3c(NNC(=O)c4ccccc4)nc4cc(F)ccc4n23)CC1` ?
Result :: class 1

Query :: Check the results log: what was the call for `NC(=Nc1ccc(N)cc1)C(N)=Nc1ccc(N)cc1` ?
Result :: class 0

Query :: Check the results log: what was the call for `O=C(Nc1ccccc1O)c1ccc(NS(=O)(=O)c2cccc3cccnc23)cc1` ?
Result :: class 0

Attribution: PubChem BioAssay (NCI)
